The reported numbers originate from patent US6573044B1.

Target: CDK2/cyclin E (Homo sapiens)
Assay: CDK2/cyclin E kinase inhibition
Conditions: Table 1, additional kinases
measured.property: pIC50
# log scale: pIC50 equals minus log10 of the concentration in mol/L

Some compounds with known pIC50 results, for comparison:
>>> reported_measurement("COc1ccc(CNc2nc(N[C@@H](CO)CC(C)C)nc3c2ncn3C(C)C)cc1 [NG-36]")
7.00
>>> reported_measurement("CC(C)C(CO)Nc1nc(Nc2cccc(Cl)c2)c2ncn(C(C)C)c2n1 (stereo not shown) [NG-56]")
7.26
>>> reported_measurement("CC(C)[C@H](CO)Nc1nc(Nc2cccc(Cl)c2)c2ncn(C(C)C)c2n1 [NG-60]")
7.52

Attention now turns to another entry.
Input line: Please supply the value of reported pIC50 for the item COc1ccc(CNc2nc(N(CC(C)O)CC(C)O)nc3c2ncn3C(C)C)cc1 (stereo not shown) [NG-16]
Output line: 6.74
